tested on: 947758-054-R-J2-PDC spheroid growth, percent test/control; experiment: Anticancer human tumor 947758-054-R-J2-PDC patient-derived colon adenocarcinoma cell line growth inhibition [CLK]; conditions: second compound 0.316 µM; first compound 0.000949 µM; stronger effect = lower value; spheroids with HUVEC and MSC
Known viability, T/C of a selection of compounds
Dear colleague, please return just the value in %, with no unit written.

Take a look at these entries with their results.
INSERT INTO assay_data (compound, assayed_target, unit_abbreviation, reported_result) VALUES
  ('C=CC(=O)Nc1cc(Nc2nccc(-c3cn(C)c4ccccc34)n2)c(OC)cc1N(C)CCN(C)C + CN1CCN(c2cc(C(=O)Nc3cc4cc(-c5cnn(C)c5)ccc4cn3)ccn2)CC1', '947758-054-R-J2-PDC spheroid growth, percent test/control', '%', 4.91),
  ('CC(C)CC(NC(=O)C(Cc1ccccc1)NC(=O)c1cnccn1)B(O)O (centres undefined) + CN1CCN(c2cc(C(=O)Nc3cc4cc(-c5cnn(C)c5)ccc4cn3)ccn2)CC1', '947758-054-R-J2-PDC spheroid growth, percent test/control', '%', 1.38),
  ('CC(C)CC(NC(=O)C(Cc1ccccc1)NC(=O)c1cnccn1)B(O)O (centres undefined) + CNC(=O)c1ccc(Nc2nc(OC3CCCC3)c3c(-c4ccc5nc(C)oc5c4)c[nH]c3n2)c(OC)c1', '947758-054-R-J2-PDC spheroid growth, percent test/control', '%', 102);

Kindly review the next compound as well.
viability, T/C measured on C=CC(=O)Nc1cc(Nc2nccc(-c3cn(C)c4ccccc34)n2)c(OC)cc1N(C)CCN(C)C + CNC(=O)c1ccc(Nc2nc(OC3CCCC3)c3c(-c4ccc5nc(C)oc5c4)c[nH]c3n2)c(OC)c1 = 88.2

----------
system: 947758-054-R-J2-PDC spheroid growth, percent test/control; assay: Anticancer human tumor 947758-054-R-J2-PDC cell line growth inhibition [CLK]; settings: second compound 1 µM; first compound 0.0316 µM; stronger effect = lower value; spheroids with HUVEC and MSC;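 note: spheroids exposed to compounds for one week before readout; 100% = DMSO vehicle control wells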
Known viability, T/C of a selection of compounds
Dear colleague, please return just the value in %, with no unit written.

INSERT INTO measurements (compound, unit_abbreviation, reported_result) VALUES
  ('CC1COCCN1c1cc(C2(S(C)(=N)=O)CC2)nc(-c2ccnc3[nH]ccc23)n1 (stereo not given) + CNC(=O)c1ccc(Nc2nc(OC3CCCC3)c3c(-c4ccc5nc(C)oc5c4)c[nH]c3n2)c(OC)c1', '%', 72.4),
  ('Cn1ncnc1[C@H]1c2n[nH]c(=O)c3cc(F)cc(c23)N[C@@H]1c1ccc(F)cc1 + CNC(=O)c1ccc(Nc2nc(OC3CCCC3)c3c(-c4ccc5nc(C)oc5c4)c[nH]c3n2)c(OC)c1', '%', 46),
  ('CC(CO)NC(=O)c1cc(-c2ccc(Cl)cc2)nn(-c2cnn(C)c2)c1=O (stereo not given) + CN1CCN(c2cc(C(=O)Nc3cc4cc(-c5cnn(C)c5)ccc4cn3)ccn2)CC1', '%', 0.15);

viability, T/C measured on COC1C=CCC(C)C(C)S(=O)(=O)NC(=O)c2ccc3c(c2)N(CC2CCC21)CC1(CCCc2cc(Cl)ccc21)CO3 (stereo not given) + CNC(=O)c1ccc(Nc2nc(OC3CCCC3)c3c(-c4ccc5nc(C)oc5c4)c[nH]c3n2)c(OC)c1 = 37.5

viability, T/C measured on CCCS(=O)(=O)Nc1ccc(F)c(C(=O)c2c[nH]c3ncc(-c4ccc(Cl)cc4)cc23)c1F + CN1CCN(c2cc(C(=O)Nc3cc4cc(-c5cnn(C)c5)ccc4cn3)ccn2)CC1 = 0.85

viability, T/C measured on COc1ccc([C@@H](O)c2cc(-c3ncnc4cc(N5CCOCC5)ccc34)c(F)cc2Cl)nn1 + CN1CCN(c2cc(C(=O)Nc3cc4cc(-c5cnn(C)c5)ccc4cn3)ccn2)CC1 = 0.11

viability, T/C measured on C=CC(=O)N1CCN(c2nc(=O)n(-c3c(C)ccnc3C(C)C)c3nc(-c4c(O)cccc4F)c(F)cc23)C(C)C1 (stereo not given) + CN1CCN(c2cc(C(=O)Nc3cc4cc(-c5cnn(C)c5)ccc4cn3)ccn2)CC1 = 0.18

viability, T/C measured on COc1cccc2c1C(=O)c1c(O)c3c(c(O)c1C2=O)CC(O)(C(=O)CO)CC3OC1CC(N)C(O)C(C)O1 (stereo not given) + CN1CCN(c2cc(C(=O)Nc3cc4cc(-c5cnn(C)c5)ccc4cn3)ccn2)CC1 = 0.12

viability, T/C measured on COc1c(OCCCN2CCOCC2)ccc2c3n(c(=NC(=O)c4cnc(N)nc4)nc12)CCN3 + CNC(=O)c1ccc(Nc2nc(OC3CCCC3)c3c(-c4ccc5nc(C)oc5c4)c[nH]c3n2)c(OC)c1 = 10.1

viability, T/C measured on CC(Nc1ccc2c(c1)OCCn1cc(N3C(=O)OCC3C(F)F)nc1-2)C(N)=O (stereo not given) + CN1CCN(c2cc(C(=O)Nc3cc4cc(-c5cnn(C)c5)ccc4cn3)ccn2)CC1 = 0.13
